Assign apparent KD of MS2 coat protein to each entry below.
Test system: MS2 coat protein
PROTOCOL SUMMARY: apparent KD of MS2 coat protein; designed switch direction (-1 OFF switch, 1 ON switch): 1; higher = weaker reporter binding
CONDITION SET: input ligand: none
Give just the numeric value; nM need not be written.

Quick one: give measured apparent KD of MS2 coat protein for UGGUACAUGGGAGGAUAUGGAGUUGAGACAUGAGGAUCACCCAUGUUAUAAAAGCCGAGAGGCAACUAGAAGGCCCAUGUACCU [JL SSNG1 3.92] (Eterna round: R96, puzzle: Same State NG 2)
62.9

Tell me measured apparent KD of MS2 coat protein for AGCCUGAGUCGAGGAUAUUAUGGAUCCUUUAAUACAUGAGGAUCACCCAUGUAAUUAAUUAUACAUGAGAAGGCGACUCAGGCA [SSNG2/11-A1] (Eterna round: R96, puzzle: Same State NG 2) please.
129

Dear colleague, please send me the reported apparent KD of MS2 coat protein for GCGAAGAGGUAAGGAUAUGCAUGGCGGAGACAUGAGGAUCACCCAUGUUGGAGACGAAAUCUAGGGUAGAAGGUACCAGGACGC [AK SSNG2-V2-13] (Eterna round: R96, puzzle: Same State NG 2) when you can.
72.9

---

Can you tell me apparent KD of MS2 coat protein for the items I'm about to list?
Test system: MS2 coat protein
PROTOCOL SUMMARY: apparent KD of MS2 coat protein; designed switch direction (-1 OFF switch, 1 ON switch): -1; higher = weaker reporter binding
CONDITION SET: input ligand: FMN 200 uM
Express your answer in nM, writing the number without its unit.

Please indicate apparent KD of MS2 coat protein recorded for GUAAUUAAUGUAGGAUAUGCAAGGCGAACCUAAGCAGAAGGACAUGAGGAUCACCCAUGUAAUGCGGUCUGCGUACAGAUCGCU [salish99_ExNG1_r4_007] (Eterna round: R96, puzzle: Exclusion NG 1)
47.8

Answer with the recorded apparent KD of MS2 coat protein of AAUACCCUGUUAGGAUAUAAUACCGAAGGAGUAUUAGAAGGGACAGUAAGGUACAUGAGGAUCACCCAUGUGAGAAUCUGUGCC [Edanxeve] (Eterna round: R96, puzzle: Exclusion NG 1) only.
107

Indicate its recorded apparent KD of MS2 coat protein; the sequence in question is UGAUCUAGCGGAGGAUAUACAUGAGGAUCACCCAUGUAGAUAACAUGACCGUAGUCGUGUAACGUGUAGAAGGCCGCUAGAUCU [JL ENG2 3.68] (Eterna round: R96, puzzle: Exclusion NG 2)
104

In one line, give reported apparent KD of MS2 coat protein of the entry AAAAGCCUAGGAUAUACUUGAGGAUCACCCAAGUAGGGUCGCAUGGACCCGUCCUCGUGUAGAAGGAGGAAAAG [Orreteceer] (Eterna round: R97, puzzle: Exclusion 3) .
108

// fetch apparent KD of MS2 coat protein given entry AUGCCCUGAGGAUAUCUCAUCCCGCACAUGAGGAUCACCCAUGUUCUCCUCCGGGCUCCGAGAGAAGGCAGGCCUA [Armus7] (Eterna round: R97, puzzle: Exclusion 5)
80.1

---

Tested on: MS2 coat protein
PROTOCOL SUMMARY: apparent KD of MS2 coat protein; designed switch direction (-1 OFF switch, 1 ON switch): -1; higher = weaker reporter binding
CONDITION SET: Eterna round: R95; input ligand: none
Response key: met means apparent KD of MS2 coat protein >= 30 nM; not met means apparent KD of MS2 coat protein < 30 nM.

Hi team, for UAAAAUAGUGUGAGGAUAUGCUGGUCCUUGGAUCAGCAGAAGGCACAUGAGGAUCACCCAUGUAGAUAAUAAUA [Mat - Exclusion 4 - JL Mod - D26] (puzzle: Brourd's mod of Exclusion 4) , is the recorded apparent KD of MS2 coat protein at or above 30 nM?
met

Hello, I need to know if AAGAAACAUGAGGAUCACCCAUGUGAGGAUAUGUAAAAGAAAAGAAAAUAAAGAAGAAACAGAAGGCACAAAGG [Mat - Mod of Hog D21] (puzzle: Exclusion 1) has measured apparent KD of MS2 coat protein not below 30 nM. Thanks!
met

Check if apparent KD of MS2 coat protein >= 30 nM (inclusive). Item: AGAAAUGCCCAUGGCCACAAGCUUUUCGCUUGUCUUACUACAUGAGGAUCACCCAUGUAACAUGGGCUCCUGAUAAU [Resoriraqu] (puzzle: Sensor v3, turn-off variant 2)
not met

Given AGGAGCAGAGGGAGAUCCAACAUGAGGAUCACCCAUGUCUCAUAAGCUUUUUGCUCAUCUUAUUGUACCUUGGUGCU [Mat - Sensor v3 - turn-off var 1 - JL Mod - D26] (puzzle: Sensor v3, turn-off variant 1) , state whether its apparent KD of MS2 coat protein is at least 30 nM.
met

Is reported apparent KD of MS2 coat protein greater than or equal to 30 nM here: AAAGAAGAGAGAAAAUAACACAUGAGGAUCACCCAUGUGAGAAGUUGAGGGUGAUACAGGCUUUUUGCUCGUCUUAU (puzzle: Sensor v3, turn-off variant 1)
met

---

What apparent KD of MS2 coat protein was measured for each of the following?
Tested on: MS2 coat protein
PROTOCOL SUMMARY: apparent KD of MS2 coat protein, switch ON state; designed switch direction (-1 OFF switch, 1 ON switch): 1; higher = weaker reporter binding
CONDITION SET: FMN input: 0 or 200 uM; Eterna round: R93 (includes R88 designs)
State just the number; it will be interpreted in nM.

Output apparent KD of MS2 coat protein of AGAAGACAUGAGGAUCACCCAUGUGGGAAUAUGGGAGGAUAUACAAAGACGAGAGUCAGAGUAGAAGGCCUAGGAG [salish99-SS1-093]
63.3

Complete the entry with apparent KD of MS2 coat protein for GACUGACAUGAGGAUCACCCAUGUAUUCAAACAUGAGGAUAUAUGACACGUCAUCGACGGAUAGAAGGCAUAGAUG [JR_SS001_Sub1210]
163

Report apparent KD of MS2 coat protein, nothing else, for this sequence: AUAACAACGUAUGAGGAUAUCCAUAAUAAAACAUGAGGAUCACCCAUGUGAAUAAAAUAACAAUGGGAGAAGGCAUACGUACAAU [SS 2 M 51]
12.1

Tell me measured apparent KD of MS2 coat protein for ACCCGAAAGACGUAGGAUAUGUGGUCACCGACAUGAGGAUCACCCAUGUAUGCGGGAGAAUGGGUGCAGAAGGACGCUGUUCGGU [Antilera] please.
21.9

Give the measured apparent KD of MS2 coat protein for UUUAAUUAUACGAAGGAUAUCGGUAAUUAGACAUGAGGAUCACCCAUGUUAUAUGGUUCCAUAUUCGAGAAGGUCGCGGGUGAAC [JR_SS002_Sub508]
45.6

Retrieve apparent KD of MS2 coat protein measured for AUAAAAUAAAUUGAGGAUAUCUAUAAUAAAACAUGAGGAUCACCCAUGUUUAAACAAAGAUCAUGGGAGAAGGCAGAAAAUAAAU [SS2 M 37] and print it.
12.5

---

Test system: MS2 coat protein
PROTOCOL SUMMARY: apparent KD of MS2 coat protein; designed switch direction (-1 OFF switch, 1 ON switch): -1; higher = weaker reporter binding
CONDITION SET: input ligand: FMN 200 uM
Assign class by apparent KD of MS2 coat protein: not lower than 200 nM means yes; lower than 200 nM means no.

apparent KD of MS2 coat protein >= 200 nM for ACAAGCUUUUAGAUUCUUAACAUGAGGAUCACCCAUGUGCUCGUCUUAUUUUCCGGCGGGCCGCCGGAAAAGCUUGU (Eterna round: R97, puzzle: Sensor, turn-off variant 1) ?
no

Given the entry CUAGUAUAUCAGGAUAUGAUUUUGUGUAGUUAAUCAGAAGGGAUGACAUGAGGAUCACCCAUGUUAAGGGAUGA [JR_Ex6_Sub046] (Eterna round: R97, puzzle: Exclusion 6) , answer whether its apparent KD of MS2 coat protein meets or surpasses 200 nM.
yes

Check if apparent KD of MS2 coat protein >= 200 nM (inclusive). Item: CUUGUUUAUGUAGGAUAUGCCUGGCGUGCCUUUGCAGAAGGACAUGAGGAUCACCCAUGUAACAUGAGGCUCACCCAUGUCGCG [salish99_ExNG1_r04_105] (Eterna round: R96, puzzle: Exclusion NG 1)
yes

Given AAAUUAGCAAGUAGGUCCGACAUGAGGAUCACCCAUGUAAUCUAAUAUUACGCUGCAUGAGAGUGCGCUCGUCUUAG [Sensor-V1 #17] (Eterna round: R97, puzzle: Sensor, turn-off variant 1) , state whether its apparent KD of MS2 coat protein is at least 200 nM.
yes

Exam item: decide whether the reported apparent KD of MS2 coat protein for ACAUGUCAUCGAGGAUAUUGUACACAUGAGGAUCACCCAUGUAUUCGGUUGCUCUAGCAUGAGUUCGAGAAGGCGAUGUACAUU [Ex NG2 #83] (Eterna round: R96, puzzle: Exclusion NG 2) is at least 200 nM.
no

Confirm if apparent KD of MS2 coat protein reported for the sequence AACCUAAGGCAUAGCUUUAGGUUUACAUGAGGAUCACCCAUGUAGGAUAUGGUAGGCAUAGCUUACCAGAAGGACAUGAAAAUU [Mat - Exclusion NG 3 - Mod of JL - D31] (Eterna round: R96, puzzle: Exclusion NG 3) is 200 nM or above.
yes

Assess whether reported apparent KD of MS2 coat protein for CCGGCAUGAGGAUAUCCAUCUGGAUCAGACAAGAUCCUGAUGGAGAAGGCACAUGAGGAUCACCCAUGUUACGG [Mat - Exclusion 4 - Eli Mod - D56] (Eterna round: R97, puzzle: Exclusion 4) sits at 200 nM or higher.
no

Decide: apparent KD of MS2 coat protein of CGUGAGUCAGGAUAUGCCUGUACUAACUUGAGGAUCACCCAAGUGUCCUCCCGGUGCAAUGCAGAAGGGACGACGA [Oninlein] (Eterna round: R97, puzzle: Exclusion 5) >= 200 nM?
yes

Assess whether reported apparent KD of MS2 coat protein for CACCUGAAGACAGGAUAUCAUACAUGAGGAUCACCCAUGUAAUAAAUGAGAAUUUCGAAUGUAAUUGAGAAGGGUCGAUAAGGC [Ostricism 91 - Jieux - Exclusion NG 2] (Eterna round: R96, puzzle: Exclusion NG 2) sits at 200 nM or higher.
no
